- Assayed System: hemagglutinin (HA) of influenza A/Japan/305/57 H2N2 (Influenza A virus A/Japan/305/1957 …, UniProt P03451 16-562)
- Assay Procedure: ELISA, inactivated whole virions coated; transfection supernatant set 5
Measurement Kind: OD450

[[record]]
binder = "TCN-542 (5079_A16) (antibody, V domains shown) VH: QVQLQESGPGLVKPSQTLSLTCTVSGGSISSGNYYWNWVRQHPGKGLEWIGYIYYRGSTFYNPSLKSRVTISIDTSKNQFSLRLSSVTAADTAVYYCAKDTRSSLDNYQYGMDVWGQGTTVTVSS VL: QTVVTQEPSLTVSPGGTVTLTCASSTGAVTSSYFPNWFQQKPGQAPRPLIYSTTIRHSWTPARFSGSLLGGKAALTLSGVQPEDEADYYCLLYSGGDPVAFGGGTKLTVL"
val = "0.07 OD450"

[[record]]
binder = "TCN-547 (5092_F11) (antibody, V domains shown) VH: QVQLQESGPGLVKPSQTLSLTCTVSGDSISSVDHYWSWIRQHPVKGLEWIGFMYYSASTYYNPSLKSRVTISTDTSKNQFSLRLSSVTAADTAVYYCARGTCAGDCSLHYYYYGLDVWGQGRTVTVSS VL: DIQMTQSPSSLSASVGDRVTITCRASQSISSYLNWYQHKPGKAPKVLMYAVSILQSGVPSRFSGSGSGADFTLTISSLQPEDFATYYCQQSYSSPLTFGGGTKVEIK"
val = "0.09 OD450"

[[record]]
binder = "TCN-554 (5277_M05) (antibody, V domains shown) VH: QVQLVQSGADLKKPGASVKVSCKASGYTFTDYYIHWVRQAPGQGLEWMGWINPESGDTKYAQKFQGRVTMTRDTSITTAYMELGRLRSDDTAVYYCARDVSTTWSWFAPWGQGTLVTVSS VL: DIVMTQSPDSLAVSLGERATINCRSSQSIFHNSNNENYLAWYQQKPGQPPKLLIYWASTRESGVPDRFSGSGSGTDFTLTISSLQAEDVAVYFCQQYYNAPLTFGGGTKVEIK"
val = "0.11 OD450"

